System: CL1-5
Assay: Reduction in total wild type EGFR levels in gefinitib-insensitive and 24 hrs serum starved human CL1-5 cells at 10 uM pre-incubated for 1 hr before EGF stimulation for 30 mins by Western blot method
Type: functional
The source made the active and inactive calls. The rule behind the calls is not given here.
Just give me one of these, please: active, inactive

**Query** Hi, sorry to bother you, what did the test record for COc1ccc(/C=C/C(=O)/C=C(O)/C=C/c2ccc(OC)c(OC)c2OC)cc1OC ?
**Result** active

**Query** Do the same for COc1cc(/C=C/C(=O)/C(CCC(=O)O)=C(O)/C=C/c2ccc(O)c(O)c2)ccc1O please
**Result** inactive

Continuing:
**Query** Hi, sorry to bother you, what did the test record for COc1cc(/C=C/C(=O)/C=C(O)/C=C/c2ccc(OCCCC(=O)O)c(OC)c2)ccc1OCCCC(=O)O ?
**Result** inactive

**Query** Do the same for O=C(O)CC/C(C(=O)/C=C/c1ccc(O)c(O)c1)=C(O)\C=C\c1ccc(O)c(O)c1 please
**Result** inactive

**Query** Do the same for COc1cc(/C=C/C(=O)CC(=O)/C=C/c2ccc(O)c(OC)c2)ccc1O please
**Result** active

**Query** Do the same for COC(=O)COc1ccc(/C=C/C(=O)/C=C(O)/C=C/c2ccc(OCC(=O)OC)c(OC)c2)cc1OC please
**Result** inactive

**Query** Do the same for COc1ccc(/C=C/C(=O)/C=C(O)/C=C/c2ccc(OC)c(OC)c2)cc1O please
**Result** active

**Query** Do the same for CCOC(=O)/C=C/C(C(=O)/C=C/c1ccc(O)c(O)c1)=C(O)\C=C\c1ccc(O)c(OC)c1 please
**Result** inactive

**Query** Do the same for CCOC(=O)CCCOc1ccc(/C=C/C(=O)/C(CCC(=O)OCC)=C(O)/C=C/c2ccc(OCCCC(=O)OCC)c(OC)c2)cc1OC please
**Result** inactive

---

System: CL1-5
Assay: Reduction in total wild type EGFR levels in gefinitib-insensitive and 24 hrs serum starved human CL1-5 cells at 10 uM pre-incubated for 1 hr before EGF stimulation for 30 mins by Western blot method
Type: functional
Active and inactive are the calls of the source. The rule behind the calls is not given here.
Just give me one of these, please: active, inactive

**Query** Hi, sorry to bother you, what did the test record for COc1cc(/C=C/C(=O)/C(C(C)=O)=C(O)/C=C/c2ccc(O)c(OC)c2)ccc1O ?
**Result** active

Continuing:
**Query** Hi, sorry to bother you, what did the test record for CCOC(=O)/C=C/C(C(=O)/C=C/c1ccc(O)c(OC)c1)=C(O)\C=C\c1ccc(O)c(OC)c1 ?
**Result** inactive

**Query** Do the same for COc1cc(OC)c(OC)cc1/C=C/C(=O)/C=C(O)/C=C/c1cc(OC)c(OC)cc1OC please
**Result** active

**Query** Do the same for COc1ccc(CCC(=O)CC(O)CCc2ccc(OC)c(OC)c2)cc1OC (centres undefined) please
**Result** inactive

**Query** Do the same for CCOC(=O)/C=C/C(C(=O)/C=C/c1ccc(OC)c(OC)c1)=C(O)\C=C\c1ccc(OC)c(OC)c1 please
**Result** inactive

**Query** Do the same for COc1cc(OC)c(OC)cc1/C=C/C(O)=C/C(=O)/C=C/c1ccc(OC)c(OC)c1 please
**Result** active

**Query** Do the same for COc1cc(/C=C/C(O)=C/C(=O)/C=C/c2ccc(O)cc2)ccc1O please
**Result** inactive

**Query** Do the same for COc1cc(F)c(/C=C/C(=O)/C=C(O)/C=C/c2cc(OC)c(OC)cc2F)cc1OC please
**Result** active

**Query** Do the same for CCOC(=O)CC/C(C(=O)/C=C/c1cc(OC)c(O)c(OC)c1)=C(O)\C=C\c1cc(OC)c(O)c(OC)c1 please
**Result** inactive

---

Tested on: Epidermal growth factor receptor (Homo sapiens), P00533 [L858R,T790M]
Sequence (P00533 whole entry T790M/L858R, looked up): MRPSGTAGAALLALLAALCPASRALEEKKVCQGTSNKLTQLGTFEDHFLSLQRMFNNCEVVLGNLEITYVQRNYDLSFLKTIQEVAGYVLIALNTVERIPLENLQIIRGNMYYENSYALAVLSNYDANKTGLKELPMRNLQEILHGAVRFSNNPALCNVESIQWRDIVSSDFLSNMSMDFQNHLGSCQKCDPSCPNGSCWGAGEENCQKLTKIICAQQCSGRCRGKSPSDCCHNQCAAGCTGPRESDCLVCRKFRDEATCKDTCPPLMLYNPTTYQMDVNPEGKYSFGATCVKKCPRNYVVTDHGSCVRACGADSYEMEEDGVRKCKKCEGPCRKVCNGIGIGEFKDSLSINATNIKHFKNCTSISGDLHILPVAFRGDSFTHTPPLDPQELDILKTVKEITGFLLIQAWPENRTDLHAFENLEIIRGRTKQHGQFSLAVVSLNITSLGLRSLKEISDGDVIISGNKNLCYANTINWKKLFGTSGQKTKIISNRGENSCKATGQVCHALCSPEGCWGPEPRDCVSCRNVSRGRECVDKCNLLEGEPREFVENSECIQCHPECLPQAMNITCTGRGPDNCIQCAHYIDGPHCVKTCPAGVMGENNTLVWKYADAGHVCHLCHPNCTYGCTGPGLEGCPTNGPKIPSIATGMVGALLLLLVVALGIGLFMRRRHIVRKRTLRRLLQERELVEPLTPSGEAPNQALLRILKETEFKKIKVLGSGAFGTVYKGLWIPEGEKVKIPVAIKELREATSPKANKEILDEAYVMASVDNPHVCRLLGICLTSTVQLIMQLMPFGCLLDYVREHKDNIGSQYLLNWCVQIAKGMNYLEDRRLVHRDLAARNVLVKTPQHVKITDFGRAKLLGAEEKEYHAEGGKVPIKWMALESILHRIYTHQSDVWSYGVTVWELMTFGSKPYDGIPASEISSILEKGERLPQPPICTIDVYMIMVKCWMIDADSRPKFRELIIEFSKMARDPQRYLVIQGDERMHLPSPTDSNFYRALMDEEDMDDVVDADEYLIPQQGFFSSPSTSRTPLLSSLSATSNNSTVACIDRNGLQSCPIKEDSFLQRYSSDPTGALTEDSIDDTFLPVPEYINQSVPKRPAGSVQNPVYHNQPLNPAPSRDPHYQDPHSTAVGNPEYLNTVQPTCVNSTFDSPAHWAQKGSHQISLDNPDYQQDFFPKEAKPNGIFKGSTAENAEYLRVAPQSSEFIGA
Settings: NCI-H1975, at 10 µM
Calls of active or inactive are those of the source. The rule behind the calls is not given here.
Just give me one of these, please: label 1 = active, label 0 = inactive

**Query** Hi, sorry to bother you, what did the test record for CCOC(=O)CC/C(C(=O)/C=C/c1ccc(OC)c(OC)c1)=C(O)\C=C\c1ccc(O)c(OC)c1 ?
**Result** label 1

Continuing:
**Query** Hi, sorry to bother you, what did the test record for COc1cc(/C=C/C(=O)/C(CCC(=O)O)=C(O)/C=C/c2ccc(OCCCC(=O)O)c(OC)c2)ccc1OCCCC(=O)O ?
**Result** label 0

**Query** Do the same for CCOC(=O)CC/C(C(=O)/C=C/c1cc(OC)c(O)c(OC)c1)=C(O)\C=C\c1cc(OC)c(O)c(OC)c1 please
**Result** label 0

**Query** Do the same for COc1cc(/C=C/C(=O)/C=C(O)/C=C/c2ccc(OCCCC(=O)O)c(OC)c2)ccc1OCCCC(=O)O please
**Result** label 0

**Query** Do the same for O=C(O)CC/C(C(=O)/C=C/c1ccc(O)c(O)c1)=C(O)\C=C\c1ccc(O)c(O)c1 please
**Result** label 0

---

Molecular target: Epidermal growth factor receptor (Homo sapiens)
Conditions: CL1-5, at 10 µM
Description: Inhibition of wild type EGFR Tyr1068 phosphorylation in gefinitib-insensitive and 24 hrs serum starved human CL1-5 cells at 10 uM pre-incubated for 1 hr before EGF stimulation for 30 mins by Western blot method
Active and inactive are the calls of the source. The calls are words filed in the database; no cut-off is given here.
Just give me one of these, please: t = active, f = inactive

**Query** Hi, sorry to bother you, what did the test record for COc1cc(OC)c(OC)cc1/C=C/C(O)=C/C(=O)/C=C/c1ccc(OC)c(OC)c1 ?
**Result** t

Continuing:
**Query** Hi, sorry to bother you, what did the test record for COc1cc(/C=C/C(=O)/C(CCC(=O)O)=C(O)/C=C/c2ccc(OCCCC(=O)O)c(OC)c2)ccc1OCCCC(=O)O ?
**Result** f

**Query** Do the same for CCOC(=O)CCCOc1ccc(/C=C/C(=O)/C(CCC(=O)OCC)=C(O)/C=C/c2ccc(OCCCC(=O)OCC)c(OC)c2)cc1OC please
**Result** f

**Query** Do the same for COc1ccc(/C=C/C(=O)/C=C(O)/C=C/c2ccc(OC)c(OC)c2)cc1O please
**Result** t

**Query** Do the same for COc1ccc(/C=C/C(=O)/C=C(O)/C=C/c2ccc(OC)c(OC)c2OC)c(OC)c1OC please
**Result** t

**Query** Do the same for O=C(O)CC/C(C(=O)/C=C/c1ccc(O)c(O)c1)=C(O)\C=C\c1ccc(O)c(O)c1 please
**Result** f

**Query** Do the same for COc1cc(/C=C/C(=O)/C=C(O)/C=C/c2ccc(OCC(=O)Nc3ccccc3)c(OC)c2)ccc1OCC(=O)Nc1ccccc1 please
**Result** f

**Query** Do the same for COc1ccc(/C=C/C(=O)/C=C(O)/C=C/c2ccc(OC)c(OC)c2OC)cc1OC please
**Result** t

**Query** Do the same for COc1cc(/C=C/C(O)=C/C(=O)/C=C/c2ccc(OC)c(OC)c2)ccc1O please
**Result** t

**Query** Do the same for CCOC(=O)CC/C(C(=O)/C=C/c1ccc(OC)c(OC)c1)=C(O)\C=C\c1ccc(OC)c(OC)c1 please
**Result** f

**Query** Do the same for COc1ccc(/C=C/C(=O)/C(C)=C(O)/C=C/c2ccc(OC)c(OC)c2)cc1OC please
**Result** t

**Query** Do the same for CCOC(=O)/C=C/C(C(=O)/C=C/c1ccc(OC)c(OC)c1)=C(O)\C=C\c1ccc(OC)c(OC)c1 please
**Result** f

**Query** Do the same for COC(=O)COc1ccc(/C=C/C(=O)/C=C(O)/C=C/c2ccc(OCC(=O)OC)c(OC)c2)cc1OC please
**Result** f

**Query** Do the same for COc1ccc(CCC(=O)CC(O)CCc2ccc(OC)c(OC)c2)cc1OC (configuration not stated) please
**Result** f

**Query** Do the same for CCOC(=O)/C=C/C(C(=O)/C=C/c1ccc(O)c(OC)c1)=C(O)\C=C\c1ccc(O)c(OC)c1 please
**Result** f

**Query** Do the same for CCOC(=O)CC/C(C(=O)/C=C/c1ccc(OC)c(OC)c1)=C(O)\C=C\c1ccc(O)c(OC)c1 please
**Result** t

**Query** Do the same for CCOC(=O)CC/C(C(=O)/C=C/c1ccc(OCC(=O)OC)c(OC)c1)=C(O)\C=C\c1ccc(OCC(=O)OC)c(OC)c1 please
**Result** f

---

System: Epidermal growth factor receptor (Homo sapiens), P00533 [L858R,T790M]
Details: NCI-H1975, at 10 µM
Calls of active or inactive are those of the source. No cut-off for these calls is given here.
Measure: inhibition

**Query** State the recorded inhibition for this entry: COc1cc(OC)c(OC)cc1/C=C/C(O)=C/C(=O)/C=C/c1ccc(OC)c(OC)c1
**Result** Active

**Query** Do the same for CCOC(=O)/C=C/C(C(=O)/C=C/c1ccc(O)c(OC)c1)=C(O)\C=C\c1ccc(O)c(OC)c1 please
**Result** inactive

**Query** Do the same for COc1ccc(/C=C/C(=O)/C=C(O)/C=C/c2ccc(OC)c(OC)c2OC)c(OC)c1OC please
**Result** Active

**Query** Do the same for COc1cc(/C=C/C(=O)/C=C(O)/C=C/c2cc(O)c(OC)c(OC)c2)cc(O)c1OC please
**Result** inactive

**Query** Do the same for CCOC(=O)CC/C(C(=O)/C=C/c1ccc(O)c(OC)c1)=C(O)\C=C\c1ccc(O)c(O)c1 please
**Result** Active

Now, please, on to the next molecule.
**Query** State the recorded inhibition for this entry: CCOC(=O)CC/C(C(=O)/C=C/c1ccc(O)c(OC)c1)=C(O)\C=C\c1ccc(O)c(OC)c1
**Result** inactive
